The following molecules were reported with IC50 values on High affinity nerve growth factor receptor (Homo sapiens, UniProt P04629) in different studies.

- COCCCc1cc(Cl)c(Cl)cc1NC(=O)Nc1c(C)c(OC2CCN(C)CC2)nn1-c1ccccc1: < 100 nM
- CCOC(=O)c1cnn(-c2ccccc2)c1NC(=O)N[C@@H]1CN(CCOC)C[C@H]1c1ccc(F)c(F)c1: 1000 to 10000 nM

# input Any idea what IC50 came out for CCn1cc(C(=O)Nc2cc(F)c(Oc3ccnc4ccc5c(c34)OCCO5)cc2Cl)c(=O)n(-c2ccc(F)cc2)c1=O on High affinity nerve growth factor receptor (Homo sapiens, UniProt P04629)?
# output < 50 nM

# input Next molecule up: COc1cncc(Nc2ccc(C(=O)c3c[nH]c4ncnc(NCC(F)(F)F)c34)c(F)n2)c1
# output < 100 nM

###

pIC50: −log10 of the molar value.
The following compounds were reported with pIC50 values on UniProt:P04629 in different studies.
Assign class by pIC50: not lower than 7 means Y; lower than 7 means N.

Before answering, review these 3 worked examples.
• CC(Oc1cc(-c2ccc(C(=O)NC3CC3)c(N3CCN(C4CC4)CC3)c2)cc2[nH]nc(N)c12)C(F)(F)F (stereo not drawn) = N
• CCn1cc(C(=O)Nc2ccc(Oc3ccnc4cc(OC)c5c(c34)OCCO5)cc2F)c(=O)n(-c2ccc(F)cc2)c1=O = Y
• COCCN1C[C@@H](NC(=O)Nc2c(C)c(-c3cn(C)nc3C)nn2-c2ccccc2)[C@H](c2ccc(F)c(F)c2)C1 = Y

# input Kindly determine if pIC50 recorded for Fc1cc(F)cc(C#Cc2ccc3[nH]nc(/C=C/c4ccccn4)c3c2)c1 is above or exactly 7.
# output N

# input Next compound up: Cn1ncc2c(C#Cc3cc(NC(=O)c4cccc(C(F)(F)F)c4)ccc3F)cncc21
# output N

# input Next compound up: CCOc1nc(N2CCN(C(C)=O)CC2)ccc1NC(=O)c1coc2c1C(=O)C(c1cc(F)ccc1F)CC2 (stereo not drawn)
# output Y

# input Next compound up: CC(C)n1cc(C(=O)Nc2ccc(Oc3ccnc4cc(OCCCN5CCC(C)(O)CC5)c5c(c34)OCCO5)c(F)c2)c(=O)n(-c2ccc(F)cc2)c1=O
# output Y

###

The following compounds were reported with pIC50 values on High affinity nerve growth factor receptor (Homo sapiens, UniProt P04629) in different studies.
pIC50: −log10 of the molar value.

Consider the following illustrative entries.
- COc1ccc(Nc2ccc(C(=O)c3c[nH]c4ncnc(NC(C)C)c34)c(F)n2)cn1: > 8.00
- O=C(O)c1cnc2ccc3nc2c1NCCCOc1ccc(F)cc1[C@H]1CCCN31: 6.30 to 7.30
- COCCN1C[C@@H](NC(=O)Nc2c3c(nn2-c2ccccc2)CCC3)[C@H](c2cnco2)C1 (relative stereo): 5.00 to 6.00

# input Reported pIC50 for CCc1ccc(Nc2ccc(C(=O)c3c[nH]c4ncnc(NCCCOC)c34)c(F)n2)cn1 : what is it?
# output > 8.00

# input Next compound up: COCCN1C[C@@H](NC(=O)Nc2c3c(nn2-c2ccccc2)CCC3)[C@H](c2ccccc2)C1 (relative stereo)
# output > 7.00

# input Next compound up: COCCN1C[C@@H](NC(=O)Nc2c(C)c(-c3ccn(C)c(=O)c3)nn2-c2ccccc2)[C@H](c2ccc(F)c(Cl)c2)C1 (relative stereo)
# output > 7.00

# input Next compound up: NC(=O)c1ccc(-c2cc(O[C@H]3CCOC3)c3c(N)n[nH]c3c2)cc1N1CCN(C2CC2)CC1
# output 6.76

# input Next compound up: COc1cc(Cn2c(N)nc3cc(-c4cnn(C)c4)cnc32)ccc1OCc1ccc(OC(F)(F)F)cc1
# output 9.70

# input Next compound up: Cc1cc(NC(=O)N[C@@H]2c3ccccc3C(C)(C)C[C@H]2O)c(-c2ccccc2)nc1-c1ccc(C#N)cc1
# output ≥ 7.30
